Catalogue of Activity readings, one per entry.
# Tested on: SH-SY5Y
# method: Neuroprotective activity against amyloid beta (1 to 42)-induced apoptosis in human SH-SY5Y cells assessed as late apoptotic cells at IC50 measured after 48 hrs by Annexin-V/Propidium iodide staining based flow cytometry (reference value: 33.72%)
# Assay type: functional

| molecule | Activity, % |
| --- | --- |
| COc1cc(/C=C/C(=O)NCCCNC(=O)CCCCC2CCSS2)ccc1O (stereo not given) | 9.97 |
| COc1ccc(CC(=O)NCCCNC(=O)CCCCC2CCSS2)cc1OC (stereo not given) | 16.01 |
| O=C(CCCCC1CCSS1)NCCCNC(=O)Cc1ccc(O)c(O)c1 (stereo not given) | 13.72 |
| COc1ccc(/C=C/C(=O)OCCOCCNC(=O)CCCCC2CCSS2)cc1OC (stereo not given) | 15.39 |
| O=C(CCCCC1CCSS1)NCCCCCOC(=O)Cc1ccc(O)c(O)c1 (stereo not given) | 9.69 |

====

# method: Solubility of compound in water by HPLC analysis
# Assay type: physicochemical

| compound | result-unit | solubility |
| --- | --- | --- |
| COc1ccc(/C=C/C(=O)OCCOCCNC(=O)CCCCC2CCSS2)cc1OC (stereo unspecified) | µg/mL | 10 |
| O=C(CCCCC1CCSS1)NCCOC(=O)Cc1ccc(O)c(O)c1 (stereo unspecified) | µg/mL | 736 |
| COc1ccc(CC(=O)OCCCNC(=O)CCCCC2CCSS2)cc1OC (stereo unspecified) | µg/mL | 110 |
| COc1cc(/C=C/C(=O)NCCNC(=O)CCCCC2CCSS2)ccc1O (stereo unspecified) | µg/mL | 23 |
| COc1ccc(CC(=O)NCCCNC(=O)CCCCC2CCSS2)cc1OC (stereo unspecified) | µg/mL | 42 |
| O=C(CCCCC1CCSS1)NCCCCNC(=O)Cc1ccc(O)c(O)c1 (stereo unspecified) | µg/mL | 81 |
| O=C(CCCCC1CCSS1)NCCCOC(=O)Cc1ccc(O)c(O)c1 (stereo unspecified) | µg/mL | 933 |
| COc1cc(/C=C/C(=O)NCCCNC(=O)CCCCC2CCSS2)ccc1O (stereo unspecified) | µg/mL | 49 |
| O=C(CCCCC1CCSS1)NCCCNC(=O)Cc1ccc(O)c(O)c1 (stereo unspecified) | µg/mL | 235 |
| O=C(CCCCC1CCSS1)NCCOCCOC(=O)Cc1ccc(O)c(O)c1 (stereo unspecified) | µg/mL | 2480 |
| O=C(CCCCC1CCSS1)NCCNC(=O)Cc1ccc(O)c(O)c1 (stereo unspecified) | µg/mL | 2690 |

====

# method: Stability in simulated intestinal fluid at pH 6.8 assessed as relative difference measured after 60 mins in presence of pancreatin by HPLC analysis
# Assay type: ADME
# cond: simulated gi fluid, pH 6.8, 1 h
Form field: fold change (FC) (one value per entry).
measured-quantity: fold change (FC)

| compound | measured-quantity | measurement |
| --- | --- | --- |
| O=C(CCCCC1CCSS1)NCCOCCOC(=O)Cc1ccc(O)c(O)c1 (stereo not given) | fold change (FC) | 60.78% |
| COc1ccc(/C=C/C(=O)OCCOCCNC(=O)CCCCC2CCSS2)cc1OC (stereo not given) | fold change (FC) | 27.2% |
| O=C(CCCCC1CCSS1)NCCOC(=O)Cc1ccc(O)c(O)c1 (stereo not given) | fold change (FC) | 54.62% |
| O=C(CCCCC1CCSS1)NCCNC(=O)Cc1ccc(O)c(O)c1 (stereo not given) | fold change (FC) | 4.02% |
| O=C(CCCCC1CCSS1)NCCCCNC(=O)Cc1ccc(O)c(O)c1 (stereo not given) | fold change (FC) | 42.7% |
| COc1cc(/C=C/C(=O)NCCNC(=O)CCCCC2CCSS2)ccc1O (stereo not given) | fold change (FC) | 5.2% |
| COc1ccc(/C=C/C(=O)NCCCCNC(=O)CCCCC2CCSS2)cc1OC (stereo not given) | fold change (FC) | 11.79% |
| COc1ccc(CC(=O)NCCCNC(=O)CCCCC2CCSS2)cc1OC (stereo not given) | fold change (FC) | 0.9% |
| O=C(CCCCC1CCSS1)NCCCNC(=O)Cc1ccc(O)c(O)c1 (stereo not given) | fold change (FC) | 56.3% |
| COc1cc(/C=C/C(=O)NCCCNC(=O)CCCCC2CCSS2)ccc1O (stereo not given) | fold change (FC) | 1.04% |
